Provide the recorded IC50 for the entries that follow.
Target: UniProtKB P35968
Sequence (P35968 786-1356): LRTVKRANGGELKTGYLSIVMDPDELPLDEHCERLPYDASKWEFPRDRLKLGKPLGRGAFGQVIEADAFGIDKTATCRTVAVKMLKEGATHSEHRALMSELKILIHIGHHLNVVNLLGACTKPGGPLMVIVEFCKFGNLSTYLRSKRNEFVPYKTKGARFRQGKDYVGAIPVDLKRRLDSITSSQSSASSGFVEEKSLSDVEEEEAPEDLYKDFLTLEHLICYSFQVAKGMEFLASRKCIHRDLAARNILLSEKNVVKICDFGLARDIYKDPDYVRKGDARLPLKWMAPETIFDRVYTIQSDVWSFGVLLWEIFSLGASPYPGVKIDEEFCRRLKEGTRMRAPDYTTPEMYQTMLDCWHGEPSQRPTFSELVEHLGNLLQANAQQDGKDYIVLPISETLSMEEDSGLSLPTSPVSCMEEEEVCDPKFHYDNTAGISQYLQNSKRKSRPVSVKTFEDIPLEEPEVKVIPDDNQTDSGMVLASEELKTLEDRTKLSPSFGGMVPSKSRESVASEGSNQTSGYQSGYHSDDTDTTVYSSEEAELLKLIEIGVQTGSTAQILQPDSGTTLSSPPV
Assay: VEGFR2 Kinase Assay
Assay type: biochemical
Settings: purified cytoplasmic domain KDR protein, 2.7 μM ATP
Give bare numbers, in nM.

Please report IC50 for every entry that follows.
1. Cc1ccoc1C(=O)Nc1cccc(C#Cc2cncc(-c3nnn(CCCO)n3)c2)c1
2. O=C(Nc1ccc(C#Cc2cncc(-c3nnn(CCCO)n3)c2)cc1)Nc1cc(C(F)(F)F)ccc1F

Ans.
1: 5; 2: 8

Qu. Tell me the measured IC50 of Cc1cccc(C(=O)Nc2cccc(C#Cc3cncc(-c4nnn(CCCO)n4)c3)c2)c1 , please.
Ans. 7

###

Molecular target: PDGFRβ (Homo sapiens (Human))
Sequence (P09619 554-1106): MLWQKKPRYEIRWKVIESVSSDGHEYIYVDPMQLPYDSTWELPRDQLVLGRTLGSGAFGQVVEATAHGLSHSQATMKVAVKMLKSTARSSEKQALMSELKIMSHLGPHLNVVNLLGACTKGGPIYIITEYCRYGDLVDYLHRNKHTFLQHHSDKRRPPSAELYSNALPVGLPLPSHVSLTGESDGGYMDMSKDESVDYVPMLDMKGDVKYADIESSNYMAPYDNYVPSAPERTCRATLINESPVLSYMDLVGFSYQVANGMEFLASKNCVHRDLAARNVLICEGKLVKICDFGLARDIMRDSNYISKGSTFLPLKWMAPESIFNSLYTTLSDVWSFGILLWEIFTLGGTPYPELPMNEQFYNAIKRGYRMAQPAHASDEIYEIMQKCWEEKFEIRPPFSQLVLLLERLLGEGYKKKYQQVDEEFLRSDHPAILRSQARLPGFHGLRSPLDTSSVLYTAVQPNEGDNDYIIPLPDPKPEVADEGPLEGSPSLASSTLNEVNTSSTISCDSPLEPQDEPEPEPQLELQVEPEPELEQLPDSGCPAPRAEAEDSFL
Assay: PDGFRβ Kinase Assay
Format: biochemical
Details: purified cytoplasmic domain PDGFR-b protein, 36 μM ATP
observation type: IC50 (nM)
One number for each entry, in nM.

Qu. # query: IC50 of entry Cc1ccoc1C(=O)Nc1cccc(C#Cc2cncc(-c3nnn(CCCO)n3)c2)c1
Ans. 21
